Biological target: DYRK2 (human)
Assay: radiometric filter-binding kinase assay
Settings: compound 100.0 µM; ATP 50 µM
property_measured: inhibition (%)
Please reply with the bare figure in % and do not write the unit itself.

> print(dat)
                                   compound  property.measured  numeric.value
1           CC(=O)Nc1nc2cnc(-c3ccccc3)cn2n1         inhibition             30
2       COc1ccc(-c2cc3c(=O)[nH]cnc3s2)cc1OC         inhibition             56
3           CC(C)(C)Nc1c(C2CC2)nc2[nH]cnn12         inhibition              4
4  O=C(c1cccc(-c2cc3c(=O)[nH]cnc3s2)c1)N1CCOCC1         inhibition             53
5             Cc1cccc(C)c1-c1cn2nc(N)nc2cn1         inhibition             21

The value of inhibition measured for the compound O=c1cc(-c2ccccc2F)nc2[nH]ccn12 turned out to be 37

For reference, reported inhibition for CC1CN(c2nc3ccccn3c(=O)c2N)CC(C)O1 (configuration not stated) stands at 40

Short answer for O=c1c(NC(=S)NCc2ccccc2)cnc2[nH]ccn12 : inhibition was 13

Entry under test: Nc1cnc2c(-c3c(F)cccc3F)cccn2c1=O . Its inhibition was 20

// inhibition lookup, compound = COc1ccc(NC(=S)Nc2cnc3[nH]cnn3c2=O)cn1 , result: 27

For record Nc1nc2cnc(-c3ccccc3)cn2n1 the listed inhibition is 63

Reported inhibition for CC(C)(C)Nc1c(COCc2ccccc2)nc2[nH]cnn12 was 6

---

compounds and their reported inhibition
Target: STK16 (human)
Assay: radiometric filter-binding kinase assay
Conditions: compound 100.0 µM; ATP 50 µM
Report only the number, with the unit % understood.

Recorded inhibition, per entry:
> print(dat)
                                   compound  unit.descriptor  numeric.value
1          O=C(Nc1cnc2[nH]ccn2c1=O)c1ccccc1                %             21
2          Nc1cnc2c(-c3c(F)cccc3F)cccn2c1=O                %              3
3  CC1CN(c2nc3ccccn3c(=O)c2N)CC(C)O1 (stereo not given)                %              6
4            O=c1cc(-c2ccccc2F)nc2[nH]ccn12                %             15

Considering COc1ccc(NC(=S)Nc2cnc3[nH]cnn3c2=O)cn1 , its inhibition with STK16 (human) was recorded as 3

Response field inhibition (STK16 (human)) for item Cc1cccc(C)c1-c1cn2nc(N)nc2cn1 : 6

Known value: STK16 (human) inhibition of the compound Nc1nc2cnc(-c3ccccc3)cn2n1 equals 7

Given the compound CC(=O)Nc1nc2cnc(-c3ccccc3)cn2n1 and test system STK16 (human), the measured inhibition is 0

The recorded inhibition with STK16 (human) for O=C(c1cccc(-c2cc3c(=O)[nH]cnc3s2)c1)N1CCOCC1 was 4

Record CC(C)(C)Nc1c(C2CC2)nc2[nH]cnn12 / STK16 (human), inhibition recorded as 0

Reading of inhibition for COc1ccc(-c2cc3c(=O)[nH]cnc3s2)cc1OC with STK16 (human): 12

The reported STK16 (human) inhibition of O=c1c(NC(=S)NCc2ccccc2)cnc2[nH]ccn12 is 0

STK16 (human) inhibition of O=C(Nc1cnc2[nH]cnn2c1=O)c1ccccc1 is 10

// assay STK16 (human), entry CC(=O)Nc1nc2cnc(-c3c(C)cccc3C)cn2n1 , inhibition value = 0

Readout inhibition for CC(C)(C)Nc1c(COCc2ccccc2)nc2[nH]cnn12 , test system STK16 (human), was 0

---

inhibition values by entry
Target: AURKB (human)
Test: radiometric filter-binding kinase assay
Conditions: compound 100.0 µM; ATP 20 µM
Supply the numeric figure in %, leaving out any unit text.

Reference set (8 entries):
> print(dat)
                                   compound  measurement.target  numeric.value
1          O=C(Nc1cnc2[nH]ccn2c1=O)c1ccccc1       AURKB (human)              0
2          Nc1cnc2c(-c3c(F)cccc3F)cccn2c1=O       AURKB (human)             81
3  CC1CN(c2nc3ccccn3c(=O)c2N)CC(C)O1 (centres undefined)       AURKB (human)             32
4       COc1ccc(-c2cc3c(=O)[nH]cnc3s2)cc1OC       AURKB (human)             19
5      O=c1c(NC(=S)NCc2ccccc2)cnc2[nH]ccn12       AURKB (human)              0
6           CC(C)(C)Nc1c(C2CC2)nc2[nH]cnn12       AURKB (human)             34
7           CC(=O)Nc1nc2cnc(-c3ccccc3)cn2n1       AURKB (human)             61
8       CC(=O)Nc1nc2cnc(-c3c(C)cccc3C)cn2n1       AURKB (human)              0

Proceed to the following item.
# inhibition of Nc1nc2cnc(-c3ccccc3)cn2n1 = 76

---

Target: MAPK12 (human) (UniProt P53778)
Sequence (P53778 whole entry, looked up): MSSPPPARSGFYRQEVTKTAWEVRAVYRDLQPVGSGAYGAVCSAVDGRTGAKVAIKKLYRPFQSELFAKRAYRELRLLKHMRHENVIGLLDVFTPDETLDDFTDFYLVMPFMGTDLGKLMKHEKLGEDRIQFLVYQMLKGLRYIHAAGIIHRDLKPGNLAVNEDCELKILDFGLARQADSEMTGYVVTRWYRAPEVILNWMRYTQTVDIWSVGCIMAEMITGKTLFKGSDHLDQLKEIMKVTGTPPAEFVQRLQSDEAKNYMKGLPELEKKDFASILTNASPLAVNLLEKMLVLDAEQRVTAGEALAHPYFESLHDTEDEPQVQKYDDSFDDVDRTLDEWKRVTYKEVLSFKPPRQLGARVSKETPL
Experiment: radiometric filter-binding kinase assay
Conditions: compound 100.0 µM; ATP 5 µM
property_measured: inhibition

Consider the worked cases shown below.
> print(dat)
                                molecule               measurement.target  result
1   O=c1c(NC(=S)NCc2ccccc2)cnc2[nH]ccn12  MAPK12 (human) (UniProt P53778)      0%
2       O=C(Nc1cnc2[nH]ccn2c1=O)c1ccccc1  MAPK12 (human) (UniProt P53778)      0%
3       Nc1cnc2c(-c3c(F)cccc3F)cccn2c1=O  MAPK12 (human) (UniProt P53778)     17%
4    COc1ccc(-c2cc3c(=O)[nH]cnc3s2)cc1OC  MAPK12 (human) (UniProt P53778)      0%
5          Cc1cccc(C)c1-c1cn2nc(N)nc2cn1  MAPK12 (human) (UniProt P53778)      0%
6  COc1ccc(NC(=S)Nc2cnc3[nH]cnn3c2=O)cn1  MAPK12 (human) (UniProt P53778)      0%

Now look at this one.
Sure, the documented inhibition for CC1CN(c2nc3ccccn3c(=O)c2N)CC(C)O1 (configuration not stated) is 1%

---

Biological target: CSNK2A1 (human) (UniProt P68400)
Sequence (P68400 whole entry, looked up): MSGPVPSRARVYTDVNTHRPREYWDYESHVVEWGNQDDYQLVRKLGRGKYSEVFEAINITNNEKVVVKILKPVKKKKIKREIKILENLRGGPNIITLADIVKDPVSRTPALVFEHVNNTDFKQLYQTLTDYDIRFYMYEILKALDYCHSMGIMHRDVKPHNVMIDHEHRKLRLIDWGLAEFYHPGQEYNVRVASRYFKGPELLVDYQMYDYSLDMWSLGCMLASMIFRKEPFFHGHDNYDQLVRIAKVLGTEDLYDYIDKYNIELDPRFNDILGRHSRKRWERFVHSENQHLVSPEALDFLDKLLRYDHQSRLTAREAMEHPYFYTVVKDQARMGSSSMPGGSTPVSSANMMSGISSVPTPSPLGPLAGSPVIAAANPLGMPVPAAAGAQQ
Test: radiometric filter-binding kinase assay
Conditions: compound 100.0 µM; ATP 5 µM
inhibition overview
Record the value in %, omitting the unit from your answer.

The recorded inhibition for entry O=C(Nc1cnc2[nH]cnn2c1=O)c1ccccc1 equals 0

inhibition measured on O=c1c(NC(=S)NCc2ccccc2)cnc2[nH]ccn12 = 3

The reported value for O=C(c1cccc(-c2cc3c(=O)[nH]cnc3s2)c1)N1CCOCC1 in terms of inhibition is 41

// O=C(Nc1cnc2[nH]ccn2c1=O)c1ccccc1 : inhibition value = 11

---

Listed below: inhibition values for each entry.
Molecular target: INSRR (human)
Assay: radiometric filter-binding kinase assay
Settings: compound 100.0 µM; ATP 5 µM
Output spec: scalar in %, unitless text.

> print(dat)
                              smi  numeric.value
1  O=c1cc(-c2ccccc2F)nc2[nH]ccn12              6

Consider O=C(c1cccc(-c2cc3c(=O)[nH]cnc3s2)c1)N1CCOCC1 . Its measured inhibition is 0

Input O=C(Nc1cnc2[nH]ccn2c1=O)c1ccccc1 . Output inhibition: 11

# compound CC(C)(C)Nc1c(COCc2ccccc2)nc2[nH]cnn12 ; its inhibition = 4

Memo: O=c1c(NC(=S)NCc2ccccc2)cnc2[nH]ccn12 , reported inhibition: 0

Record Cc1cccc(C)c1-c1cn2nc(N)nc2cn1 , field inhibition: 24

Lookup result for CC(=O)Nc1nc2cnc(-c3ccccc3)cn2n1 ; measured inhibition: 60

Please fill in: inhibition reported for CC(=O)Nc1nc2cnc(-c3c(C)cccc3C)cn2n1 = 0

---

Target: MAPK1 (human) (UniProt P28482)
Sequence (P28482 whole entry, looked up): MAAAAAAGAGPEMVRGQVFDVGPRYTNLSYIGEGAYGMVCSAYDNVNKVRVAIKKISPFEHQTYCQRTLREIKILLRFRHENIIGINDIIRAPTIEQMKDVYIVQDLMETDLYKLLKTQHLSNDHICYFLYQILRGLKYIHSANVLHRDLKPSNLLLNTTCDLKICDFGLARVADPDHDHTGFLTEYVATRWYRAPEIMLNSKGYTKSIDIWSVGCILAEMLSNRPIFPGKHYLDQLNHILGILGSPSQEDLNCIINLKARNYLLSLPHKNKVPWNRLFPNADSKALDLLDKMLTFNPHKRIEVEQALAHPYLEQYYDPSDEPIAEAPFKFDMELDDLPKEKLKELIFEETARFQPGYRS
Assay: radiometric filter-binding kinase assay
Conditions: compound 100.0 µM; ATP 20 µM
Hi, to clarify the labels: 1 (yes) covers inhibition from 10% upward, 0 (no) covers anything below 10%.

// below: answered compounds
> print(dat)
                                compound  qualitative.label
1       O=C(Nc1cnc2[nH]cnn2c1=O)c1ccccc1             0 (no)
2              Nc1nc2cnc(-c3ccccc3)cn2n1            1 (yes)
3  COc1ccc(NC(=S)Nc2cnc3[nH]cnn3c2=O)cn1            1 (yes)

Reported inhibition reaches at least 10% for O=c1c(NC(=S)NCc2ccccc2)cnc2[nH]ccn12 ?
0 (no)

Could you please find out whether CC1CN(c2nc3ccccn3c(=O)c2N)CC(C)O1 (stereo not drawn) has inhibition that meets 10% or exceeds it?
1 (yes)

Evaluate COc1ccc(-c2cc3c(=O)[nH]cnc3s2)cc1OC : inhibition at minimum 10%?
0 (no)

Reported inhibition at or above 10%? CC(C)(C)Nc1c(COCc2ccccc2)nc2[nH]cnn12
0 (no)
